System: A549
Test Method Notes: NCI tumour cell line growth inhibition, 48 h
Calls of active or inactive are those of the source. Rule as the data show it: active = GI50 up to about 1.1 µM and inactive = higher.
Measured Quantity: GI50

Indicate its recorded GI50; the molecule in question is Cc1[nH]c2[nH]c(=S)nc(NC(N)=S)c2c1Cc1ccccc1 75.5 µM (inactive)

Give a short answer stating reported GI50 for CCOP(=O)(/C=C/n1cc(C)c(=O)[nH]c1=O)OCC . > 100 µM (inactive)

Return value of GI50 for input C=CCc1cccc2cc(C(=O)NC3CCCCC3)c(=N)oc12 , no commentary. 32.2 µM (inactive)

Kindly indicate its recorded GI50. Item: FC(F)(F)c1cccc(C2SCc3nc4ccccc4n32)c1 (stereo not given) 56.1 µM (inactive)

Answer with the recorded GI50 for the molecule listed here: COc1cc2c(cc1OC)C(C1CC1)ON(C)CC2 (stereo not given) > 100 µM (inactive)

Source of measurements: ChEMBL document CHEMBL1201862
